We begin with a simple list: items and their reported residual activity.
Measured Target: ALK tyrosine kinase receptor (Homo sapiens) (UniProt Q9UM73)
Sequence (Q9UM73 19-1620 limits assumed): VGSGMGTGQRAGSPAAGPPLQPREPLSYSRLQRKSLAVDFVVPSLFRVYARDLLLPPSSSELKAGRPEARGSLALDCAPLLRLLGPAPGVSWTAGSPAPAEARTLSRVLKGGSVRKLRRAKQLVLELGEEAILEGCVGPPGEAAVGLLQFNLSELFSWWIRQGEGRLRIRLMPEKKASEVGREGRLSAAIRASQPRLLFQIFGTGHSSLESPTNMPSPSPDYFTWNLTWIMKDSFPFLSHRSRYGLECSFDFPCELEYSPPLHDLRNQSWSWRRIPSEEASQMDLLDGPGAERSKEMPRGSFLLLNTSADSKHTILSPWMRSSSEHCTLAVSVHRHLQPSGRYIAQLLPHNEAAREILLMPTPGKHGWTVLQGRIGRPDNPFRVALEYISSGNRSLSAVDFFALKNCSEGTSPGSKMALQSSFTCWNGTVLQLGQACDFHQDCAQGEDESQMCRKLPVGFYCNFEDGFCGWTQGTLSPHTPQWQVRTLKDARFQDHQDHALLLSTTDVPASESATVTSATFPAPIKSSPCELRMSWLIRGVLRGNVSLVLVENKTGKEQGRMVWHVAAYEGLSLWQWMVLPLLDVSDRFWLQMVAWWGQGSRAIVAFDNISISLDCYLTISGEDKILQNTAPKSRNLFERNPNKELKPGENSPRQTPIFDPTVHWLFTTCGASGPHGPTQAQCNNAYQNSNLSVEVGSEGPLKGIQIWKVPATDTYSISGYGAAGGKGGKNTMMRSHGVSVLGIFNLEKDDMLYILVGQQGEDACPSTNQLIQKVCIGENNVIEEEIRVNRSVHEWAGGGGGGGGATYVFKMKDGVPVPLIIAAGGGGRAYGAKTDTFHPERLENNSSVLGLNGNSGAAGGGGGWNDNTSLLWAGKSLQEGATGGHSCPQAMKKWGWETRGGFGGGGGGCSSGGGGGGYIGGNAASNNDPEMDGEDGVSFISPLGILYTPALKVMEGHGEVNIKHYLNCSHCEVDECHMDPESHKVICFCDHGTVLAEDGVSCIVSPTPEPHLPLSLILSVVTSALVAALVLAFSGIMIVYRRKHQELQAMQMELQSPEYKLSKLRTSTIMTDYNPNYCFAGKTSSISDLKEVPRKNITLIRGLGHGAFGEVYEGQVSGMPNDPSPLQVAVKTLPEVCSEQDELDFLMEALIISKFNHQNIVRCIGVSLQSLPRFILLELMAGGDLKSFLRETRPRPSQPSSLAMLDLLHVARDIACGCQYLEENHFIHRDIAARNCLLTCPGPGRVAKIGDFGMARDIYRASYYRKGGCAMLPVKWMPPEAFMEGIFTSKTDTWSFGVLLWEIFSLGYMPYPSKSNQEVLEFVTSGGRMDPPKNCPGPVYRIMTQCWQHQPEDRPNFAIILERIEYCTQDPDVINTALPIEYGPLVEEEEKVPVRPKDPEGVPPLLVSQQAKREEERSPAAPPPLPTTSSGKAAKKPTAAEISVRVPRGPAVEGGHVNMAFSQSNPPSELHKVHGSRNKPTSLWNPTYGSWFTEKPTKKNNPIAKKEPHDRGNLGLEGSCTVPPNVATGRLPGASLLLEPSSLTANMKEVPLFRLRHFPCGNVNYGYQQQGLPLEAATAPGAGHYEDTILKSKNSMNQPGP
Test Context: at 1 µM
The reply should be a number in %, with the unit left off.

Here is how some molecules turned out for residual activity.
CC[n+]1c(/C=C/N(C)c2ccccc2)n(-c2ccccc2)c2ccc(-c3nc4ccccc4s3)cc21; 88
CO[C@H]1C[C@@H]2CC[C@@H](C)[C@@](O)(O2)C(=O)C(=O)N2CCCC[C@H]2C(=O)O[C@H]([C@H](C)C[C@@H]2CC[C@@H](O)[C@H](OC)C2)CC(=O)[C@H](C)/C=C(\C)[C@@H](O)[C@@H](OC)C(=O)[C@H](C)C[C@H](C)/C=C/C=C/C=C/1C; 82

Now take the following molecule into account.
Param item = O=C1Nc2ccc(Br)cc2/C1=C\c1cc2c([nH]1)CCCC2 ; retrieve measured residual activity.
76

----------
We begin with a simple list: items and their reported residual activity.
Measured Target: Serine/threonine-protein kinase PLK3 (Homo sapiens) (UniProt Q9H4B4)
Sequence (Q9H4B4 whole entry, looked up): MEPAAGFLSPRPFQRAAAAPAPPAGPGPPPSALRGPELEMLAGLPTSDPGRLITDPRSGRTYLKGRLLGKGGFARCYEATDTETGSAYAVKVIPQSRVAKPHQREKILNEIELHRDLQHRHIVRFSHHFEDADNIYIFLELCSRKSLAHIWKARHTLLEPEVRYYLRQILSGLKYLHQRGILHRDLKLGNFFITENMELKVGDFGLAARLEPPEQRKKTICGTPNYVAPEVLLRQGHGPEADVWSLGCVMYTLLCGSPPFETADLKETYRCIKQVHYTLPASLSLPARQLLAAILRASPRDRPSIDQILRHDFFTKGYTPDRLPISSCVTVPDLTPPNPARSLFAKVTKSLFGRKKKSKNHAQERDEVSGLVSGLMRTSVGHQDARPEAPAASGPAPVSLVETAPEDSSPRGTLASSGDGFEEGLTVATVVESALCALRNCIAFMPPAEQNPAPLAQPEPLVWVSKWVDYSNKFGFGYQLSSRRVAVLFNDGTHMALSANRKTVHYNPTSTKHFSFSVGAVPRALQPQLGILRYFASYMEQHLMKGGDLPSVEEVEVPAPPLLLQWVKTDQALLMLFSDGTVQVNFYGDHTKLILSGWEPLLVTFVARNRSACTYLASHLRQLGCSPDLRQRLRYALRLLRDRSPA
Test Context: at 10 µM
Description: Millipore: Percentage of residual kinase activity of PLK3 at 10uM relative to control. Control inhibitor: Wortmannin at 100.0uM. Buffer: 8 mM MOPS pH 7.0, 0.2 mM EDTA
The reply should be a number in %, with the unit left off.

Here is how some molecules turned out for residual activity.
Cn1nc2c3c(cccc31)C(=O)c1ccccc1-2; 90
COc1ccc(S(=O)(=O)N(CCO)c2ccccc2CN(C)C/C=C/c2ccc(Cl)cc2)cc1; 96
Cc1nc(-c2ccccc2)c(-c2ccncc2)o1; 96
COc1cc2ncnc(Nc3ccc(O)c(Br)c3)c2cc1OC; 88
O=C1NC(=O)c2cc(Nc3ccc(F)cc3)c(Nc3ccc(F)cc3)cc21; 80
CO[C@H]1[C@@H](OC)C[C@H](C)[C@@H](OC)C2=CC(=O)C=C(NC(=O)/C(C)=C/C=C/[C@H](OC)[C@@H](OC(N)=O)/C(C)=C/[C@@H]1C)C2=O; 104

Now take the following molecule into account.
Param item = Nc1cccc(-c2cc3c(Oc4cccc(O)c4)ncnc3[nH]2)c1 ; retrieve measured residual activity.
74

----------
Measured Target: G protein-coupled receptor kinase 6 (Homo sapiens)
Test Context: at 10 µM
Experimental Readout: residual activity

Here is how some molecules turned out for residual activity.
N#C/C(=C(\N)Sc1ccc(N)cc1)c1ccccc1C(F)(F)F; 93%
O=C(Nc1cccc(Nc2nccc(Nc3cccc(C(F)(F)F)c3)n2)c1)C1CC1; 94%
CCOc1cc2ncnc(Nc3cccc(Br)c3)c2cc1OCC; 90%
CO[C@@H]1[C@H](N(C)C(=O)c2ccccc2)C[C@H]2O[C@]1(C)n1c3ccccc3c3c4c(c5c6ccccc6n2c5c31)C(=O)NC4; 70%
Oc1c2ccccc2c2c3c(cccc13)N=N2; 81%
c1ccc(-c2n[nH]c3c2oc2ccccc23)cc1; 86%
CCC(=O)Nc1ccc2ncnc(Nc3cccc(Br)c3)c2c1; 83%
COc1ccc(S(=O)(=O)N(CCO)c2ccccc2CN(C)C/C=C/c2ccc(Cl)cc2)cc1; 86%
O=C1Nc2ccccc2/C1=C1/Nc2ccccc2/C1=N\OCCC(O)CO (stereo not given); 72%

Param item = Nc1ccc2ncnc(NCCc3ccc(Oc4ccccc4)cc3)c2c1 ; retrieve measured residual activity.
95%

----------
Measured Target: cGMP-dependent protein kinase 1 (Homo sapiens) (UniProt Q13976)
Sequence (Q13976 whole entry): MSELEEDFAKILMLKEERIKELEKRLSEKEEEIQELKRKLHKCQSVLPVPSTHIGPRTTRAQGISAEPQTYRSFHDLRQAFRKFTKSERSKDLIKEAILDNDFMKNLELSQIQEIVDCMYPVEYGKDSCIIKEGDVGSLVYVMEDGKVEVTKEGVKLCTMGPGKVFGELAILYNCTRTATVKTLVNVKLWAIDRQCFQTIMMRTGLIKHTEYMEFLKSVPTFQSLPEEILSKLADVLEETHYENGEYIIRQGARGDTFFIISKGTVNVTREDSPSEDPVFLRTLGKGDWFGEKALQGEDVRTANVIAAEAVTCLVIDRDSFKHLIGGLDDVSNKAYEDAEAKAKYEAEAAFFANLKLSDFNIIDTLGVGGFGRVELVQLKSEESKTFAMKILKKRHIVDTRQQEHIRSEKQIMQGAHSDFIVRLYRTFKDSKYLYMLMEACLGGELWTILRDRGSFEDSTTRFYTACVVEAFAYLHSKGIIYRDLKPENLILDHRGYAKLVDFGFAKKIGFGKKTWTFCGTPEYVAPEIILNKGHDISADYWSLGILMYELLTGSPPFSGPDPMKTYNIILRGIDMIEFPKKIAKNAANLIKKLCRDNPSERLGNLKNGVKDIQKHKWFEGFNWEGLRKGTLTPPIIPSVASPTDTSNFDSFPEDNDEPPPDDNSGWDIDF
Test Context: at 1 µM
Experimental Readout: residual activity (%)
The reply should be a number in %, with the unit left off.

CO[C@H]1C[C@@H]2CC[C@@H](C)[C@@](O)(O2)C(=O)C(=O)N2CCCC[C@H]2C(=O)O[C@H]([C@H](C)C[C@@H]2CC[C@@H](O)[C@H](OC)C2)CC(=O)[C@H](C)/C=C(\C)[C@@H](O)[C@@H](OC)C(=O)[C@H](C)C[C@H](C)/C=C/C=C/C=C/1C; 86

Now take the following compound into account.
Param item = CO[C@H]1[C@@H](OC)C[C@H](C)[C@@H](OC)C2=CC(=O)C=C(NC(=O)/C(C)=C/C=C/[C@H](OC)[C@@H](OC(N)=O)/C(C)=C/[C@@H]1C)C2=O ; retrieve measured residual activity.
85
